Listed next: entries and their corresponding absorption maximum.
# assay_comment: solvent given as SMILES
# details: in ClCCl
Number only, in nm; omit the unit.

Using the record for CC1=C2C=CC=[N+]2[B-](F)(F)n2cccc21 , report its absorption maximum.
499

// absorption maximum lookup, key: Cc1cc(C)c(C2=C3C=C(c4ccccc4)C(c4ccccc4)=[N+]3[B-](F)(F)n3c2cc(-c2ccccc2)c3-c2ccccc2)c(C)c1
585

Endpoint output: absorption maximum of Cn1c(=O)cc(C(=O)c2ccccc2)c2sc(-c3ccc(OC(F)(F)F)cc3)cc21 . Value?
400

// returns reported absorption maximum for input N#Cc1ccc(-c2cn3cc(-c4ccccc4)c[n+]3[n-]2)cc1
383

# absorption maximum lookup, item c1ccc(-n2c(-c3ccc([Si](c4ccc(-c5nc6ccccc6n5-c5ccccc5)cc4)(c4ccc(-c5nc6ccccc6n5-c5ccccc5)cc4)c4ccc(-c5nc6ccccc6n5-c5ccccc5)cc4)cc3)nc3ccccc32)cc1
306

Next:
Recorded absorption maximum for CCCCN(CCCC)c1ccc(C#Cc2cc(C#Cc3ccc(C(F)(F)F)cc3)c(C#Cc3ccc(C(F)(F)F)cc3)cc2C#Cc2ccc(N(CCCC)CCCC)cc2)cc1 , please?
407

Fill blank: measured absorption maximum of the compound Cc1ccc([B-]2(c3ccc(C)cc3)n3nc(C(F)(F)F)cc3-c3c4ccccc4cc[n+]32)cc1 is ____.
373
